Each entry below carries its recorded TGI.
Test system: MDA-MB-435
Experiment: NCI tumour cell line growth inhibition, 48 h

As a guide, the following entries are already answered.
O=C1/C(=C/c2ccc(OC(=O)c3ccccc3)cc2)CCC/C1=C\c1ccc(OC(=O)c2ccccc2)cc1 :: > 100 µM
CN=c1c2c(c3[nH]c4ccccc4c4cnc1c34)NCCC2=O :: > 10 µM
CCN1C(=O)C(=C/C=C/C=C2/N(C)c3ccccc3C2(C)C)C(=O)N(CC)C1=S :: > 100 µM
CC[C@H](Nc1c(O)c2c(c(O)c1Cl)C(=O)C=CC2=O)C(=O)OC :: > 10 µM
COc1ccc(S(=O)(=O)NC(CCC(=O)NN)C(=O)NN)cc1 (stereo not drawn) :: > 100 µM
COc1ccc(/C=C2\CN(C)C/C(=C\c3ccc(OC)cc3)C2=O)cc1 :: > 100 µM
COc1cc2nc(-c3cccs3)nc(N3CCN(c4ccccc4C(F)(F)F)CC3)c2cc1OC :: > 100 µM
COc1cc(S(=O)(=O)Nc2nc(-c3ccc(N4C(=O)/C(=C/C=C/c5ccccc5)N=C4c4ccccc4)cc3)cs2)ccc1Cl :: > 100 µM
CC12CCC(C(Nc3cc(C(F)(F)F)cc(C(F)(F)F)c3)C1=O)C2(C)C (stereo not drawn) :: > 100 µM
CCCSc1ccc2[nH]c(/N=C/c3ccccc3)cc2c1 :: > 100 µM

Req: Supply reported TGI belonging to this molecule: Cc1c(CCN2CCOCC2)c(N2CCOCC2)n2c(nc3ccccc32)c1C#N
Resp: > 10 µM

Req: Consider the molecule CC(C)(C)OCC1NC(=O)[C@@H]2Cc3c([nH]c4ccccc34)C(c3ccccc3)N2C1=O (stereo partly drawn) and give its recorded TGI.
Resp: > 50 µM

Req: Identify the reported TGI for the following entry. CN1C/C(=C\c2cccs2)C2=NN(C)C(c3cccs3)C2C1 (stereo not drawn)
Resp: > 100 µM

Req: Output TGI of NC(=O)c1cc2ccc(O)cc2o/c1=N/NC(=O)c1ccccc1
Resp: > 100 µM

Req: Return TGI (reported value) for this molecule: NC[C@H]1Nc2ccccc2[C@@H](O)C1O (stereo partly drawn)
Resp: > 100 µM

Req: Tell me measured TGI for Nn1c(CCCCCCCCc2nnc(COc3ccc4ccccc4c3O)n2N)nnc1COc1ccc2ccccc2c1O please.
Resp: > 100 µM

Req: Return TGI (reported value) for this molecule: N#CC1C(=O)SC2c3ccccc3C(=O)c3ccccc3C12 (stereo not drawn)
Resp: > 10 µM

Req: Give me measured TGI, please, for this molecule: O=[N+]([O-])c1ccc(N=Nc2c(O)ccc3ccccc23)c([N+](=O)[O-])c1
Resp: > 100 µM

---

Test system: NCI-H460 lung
Test: NCI tumour cell line growth inhibition, 48 h
Metric name: TGI

A selection of reference data follows.
N#Cc1ccc2c(c1)C(=O)c1c-2n(CCCCl)c(=O)c2cc([N+](=O)[O-])ccc12 :: > 100 µM
CCC(C(=O)C(=O)C(CC)P1(=O)OC(C)(C)CN1C(C)(C)C)P1(=O)OC(C)(C)CN1C(C)(C)C (stereo not given) :: > 100 µM
Cc1cccc(C)c1NC(=O)C(=O)CC(=O)/C=C/c1ccccc1 :: > 100 µM
Cc1nc(C(N)=S)sc1C(=O)CC(=O)C(=O)Nc1ccccc1[N+](=O)[O-] :: > 100 µM

Req: Using known records, supply TGI for CC[C@@H]1C(=O)OC[C@@H]1Cc1cncn1C
Resp: > 100 µM

---

Test system: NCI-H522 lung
Experiment: NCI tumour cell line growth inhibition, 48 h
Metric name: TGI

# annotated cases, reported TGI shown
O=C1NC(=O)C(c2ccccc2Cl)=C1Nc1cc(Cl)c(O)c(Cl)c1 :: > 25 µM
O=C(N/N=C/c1c(-c2ccccc2)no[n+]1[O-])N1CCOCC1 :: > 100 µM
C=C1C(C2(C)C(OC(C)=O)CC(=O)OC(C)(COC(C)=O)C2CC(=O)OC)C(OC=O)C(OC(=O)C(O)C(C)CC)C2(C)C(c3ccoc3)CC(=O)C12O (stereo not given) :: > 100 µM

Req: Give the value of TGI reported for the following: COC(=O)CC[C@]1(C)O[C@H]2[C@H]([C@@H](C)CCCC(C)=O)OC(=O)[C@@H]2C[C@H]1O
Resp: > 100 µM

Req: // fetch TGI given entry Oc1cc2c3c(c1)CCCN3CCC2
Resp: > 10 µM

Req: Determine its reported TGI: O=C1c2ccccc2-c2oc(=O)c3ccccc3c21
Resp: > 100 µM

Req: Look up and state reported TGI for Cc1cccc(C)c1CO
Resp: > 100 µM

Req: Using known records, supply TGI for O=S(=O)(c1ccccc1)C(c1ccc2ccccc2n1)S(=O)(=O)c1ccccc1
Resp: > 100 µM

Req: Assign TGI to the following record: Cc1ccc(/C(O)=C/c2nc3c(nc2NC24CC5CC(CC(C5)C2)C4)c(=O)oc2ccccc23)cc1
Resp: > 100 µM

Req: Provide measured TGI value, entry: NC(=O)CCC(Nc1c2ccccc2nc2ccccc12)C(=O)O (stereo not given)
Resp: > 100 µM

Req: Annotate the compound COc1ccc(C2SCC(=O)N2NC(=O)c2ccncc2)cc1F (stereo not given) with its measured TGI.
Resp: > 100 µM

Req: Identify TGI associated with the compound CC(NO)/C(=N/O)c1ccco1 (stereo not given)
Resp: > 10 µM

Req: Note TGI for the compound shown: CCCC[C@H]1[C@@H](OCOc2ccccc2)COC(=O)N1[C@H](C)c1ccccc1
Resp: 29.2 µM

Req: For the compound CC(=O)OC[C@]1(C)CCCC2(C)C1CCC1C=C(C)[C@H]3CCC12C3 (stereo not given in full) , give its reported TGI.
Resp: 75 µM

Req: Provide one value: measured TGI of CN(C)CC1CN=C(N)O1 (stereo not given)
Resp: > 100 µM

Req: Supply TGI value. Item: COc1ccc(/C(COc2ccc3c(=O)c(-c4ccccc4)coc3c2)=N\O)cc1
Resp: 20.6 µM

Req: Return TGI for the following compound: CCCCN1CN2C(=O)C(C(=O)OCC)C(=O)c3sc4nc(SC)nc1c4c32 (stereo not given)
Resp: 35.4 µM

Req: # return recorded TGI for input O=c1[nH]/c(=C/c2ccc(OCc3ccccc3)cn2)c(=O)[nH]/c1=C/c1ccc(F)cc1
Resp: 9.06 µM

Req: Identify TGI associated with the compound CSC1=Nc2ccccc2-c2nc3ccccc3cc2C1
Resp: > 100 µM

Req: Specify measured TGI for C#CCOCn1cnc2c(Sc3c([N+](=O)[O-])ncn3C)ncnc21 .
Resp: > 100 µM

---

Tested on: KM12 colon
Assay: NCI tumour cell line growth inhibition, 48 h
A collection of compounds and their measured TGI

Worked examples follow.
CCCN(CCC)c1ccc(/C=C/c2ccc3cc(OCC)ccc3n2)cc1 :: > 100 µM
CC1C/C(=C\c2ccc(OC(=O)C(C)(C)C)cc2)C(=O)/C(=C/c2ccc(OC(=O)C(C)(C)C)cc2)C1 (stereo unspecified) :: > 100 µM
O=C1C=CC(=O)C12CCc1ccccc12 :: > 100 µM
COc1ccc(C2SCC(=O)N2NC(=O)c2ccncc2)cc1F (stereo unspecified) :: > 100 µM
CCOC(=O)NC1C2CC(=O)OC(O2)C1OC(C)=O (stereo unspecified) :: > 100 µM

# next compound below
Req: Please give measured TGI of the following entry: O=C1NC(=O)C(c2ccccc2Cl)=C1Nc1cc(Cl)c(O)c(Cl)c1
Resp: > 25 µM

---

Tested on: NCI/ADR-RES ovarian
Test: NCI tumour cell line growth inhibition, 48 h
Metric name: TGI (µM)
Just the number please, in µM, no unit attached.

c1ccc2c(NCCCCCCNc3c4ccccc4nc4ccccc34)c3ccccc3nc2c1 :: 64.2
COc1cc(N2CCC(N3CCN(C)CC3)CC2)ccc1Nc1ncnc(Nc2ccccc2S(=O)(=O)C(C)C)n1 :: 42.6

Req: Look up and report measured TGI (NCI/ADR-RES ovarian) for the following compound: COc1ccc(NC([Se])=NC23CC4CC(CC(C4)C2)C3)cc1
Resp: 8.88

---

Tested on: SK-OV-3 ovarian
Assay: NCI tumour cell line growth inhibition, 48 h
Metric name: TGI (µM)
Give the quantity in µM, number only.

COc1ccc(NC([Se])=NC23CC4CC(CC(C4)C2)C3)cc1 :: 7.43
NC1CCC(Nc2nc(NCc3ccc(-c4ccccc4O)nc3)c3ncn(C4CCCC4)c3n2)CC1 (configuration not stated) :: 0.431
CCn1c(SCC(=O)N/N=C/c2ccccc2)nc2ccccc2c1=O :: 27.1

Req: Give the value of TGI reported for the following: CN(C)CCCn1c(Cc2ccc(Cl)cc2)nc2cc(C(F)(F)F)ccc21
Resp: 28.2

Req: Identify measured TGI associated with Cc1cc(O)cc2c1[C@]1(C)CCC3C(C)(C)CCC[C@]3(C)[C@H]1C2 (some centres not stated)
Resp: 38.6

Req: Look up and state reported TGI for Cn1nc(-c2ccccc2)c(C(=O)/C=C/c2ccc(Cl)cc2)c(N2CCCCC2)c1=O
Resp: 9.81

Origin of values: PubChem BioAssay (NCI)
